Cited source: ChEMBL document CHEMBL1133499

Molecular target: Prothrombin (Homo sapiens, UniProt P00734)
pKi: −log10 of the molar value.
observable: pKi

>  <structure>
CC(=N)N1CCC(Oc2ccc3cc(C(=O)N(C)C)n(Cc4ccc5ccc(C(=N)N)cc5c4)c3c2)CC1

>  <pKi>
5.98

$$$$

a = N=C(N)c1ccc(-n2c3ccccc3c3ccc(OCc4ccc5ccc(C(=N)N)cc5c4)cc32)cc1
b = N=C(N)c1ccc(Oc2ccc3c4ccccc4n(Cc4ccc5ccc(C(=N)N)cc5c4)c3c2)cc1
c = N=C(N)c1ccc(-n2ccc3ccc(NCc4ccc5ccc(C(=N)N)cc5c4)cc32)cc1
d = CCOC(=O)c1cc2ccc(OC3CCN(C(C)=N)CC3)cc2n1Cc1ccc2ccc(C(=N)N)cc2c1
e = CN(C)C(=O)COc1ccc2c3ccccc3n(Cc3ccc4ccc(C(=N)N)cc4c3)c2c1
# ascending order, key=pKi Put the labels in the requested order and list them out.
a, c, d, b, e

====

pKi: −log10 of the molar value.
Measured pKi (Coagulation factor X (Homo sapiens, UniProt P00742))
observable: pKi

Sample answers from the record:
>  <structure>
CN(C)C(=O)COc1ccc2c3ccccc3n(Cc3ccc4ccc(C(=N)N)cc4c3)c2c1

>  <pKi>
8.30

$$$$
>  <structure>
N=C(N)c1ccc2ccc(Cn3c4ccccc4c4ccc(OC5CCNCC5)cc43)cc2c1

>  <pKi>
8.40

$$$$

P = CC(=N)N1CCC(Oc2ccc3cc(C(=O)O)n(Cc4ccc5ccc(C(=N)N)cc5c4)c3c2)CC1
Q = CC(=N)N1CCC(Oc2ccc3c4ccccc4n(Cc4ccc5ccc(C(=N)N)cc5c4)c3c2)CC1
R = N=C(N)c1ccc(CNc2ccc3ccn(-c4ccc(C(=N)N)cc4)c3c2)cc1
S = N=C(N)c1cccc(Oc2ccc3c4ccccc4n(Cc4ccc5ccc(C(=N)N)cc5c4)c3c2)c1
Please list the entries, largest pKi first. Put the labels in the requested order and list them out.
S, Q, P, R
